System: full thickness wounds in guinea pigs
Experiment: Full thickness wounds in guinea pigs
Assay type: in vivo, guinea pig
Conditions: Sodium periodate method; Alcian staining
Square brackets hold non-standard residues; d marks the D form. Ends that are not written are not given here.
Below, each entry is listed alongside its reported residence time.
Measure name: residence time

substance="Ac G dR dR dR dR dR G G G dR G D S P A S S K (Ac-G[dR][dR][dR][dR][dR]GGG[dR]GDSPASSK; also: hyaluronate conjugate) [SEQ ID No. 5, RGD peptide, tested conjugated to hyaluronate (HA)]" result_value="7 to 10 days"
substance="G R R R R R G G G R G D I PNH2 (GRRRRRGGGRGDIP-NH2; also: hyaluronate conjugate) [SEQ ID No. 12, RGD peptide, tested conjugated to hyaluronate (HA)]" result_value="7 to 10 days"
substance="G R R G R R G R G D TNH2 (GRRGRRGRGDT-NH2; also: hyaluronate conjugate) [SEQ ID No. 19, RGD peptide, tested conjugated to hyaluronate (HA)]" result_value="7 to 10 days"
